test system: HEK293 cells; conditions: HEK293, flor, 24 hrs, mean and SD, n=136
observable: pEC50
Keep it numeric: pEC50 is minus log10 of the concentration in mol/L.

Form field pEC50, entry CCCCCCCC[N+](CCCCCCCC)(CCCCCCCC)CCCCCCCC [tetra-N-octylammonium bromide, reference compound] : 5.22

----------
tested on: HepG2 cells; details: HepG2, glo, 40 hrs, n=136
observable: IC50 (µM)
# value in µM; strip the unit string

Form field IC50, entry CCCCCCCC[N+](CCCCCCCC)(CCCCCCCC)CCCCCCCC [tetra-N-octylammonium bromide, reference compound] : 8.18

----------
tested on: HepG2 cells; conditions: HepG2 glo, time point 0
Measured hepg2_glo_pod_0 values are reported for all entries that follow.
Reply: number alone, nothing else.

# count of solved cases: 2
[[record]]
compound = "O=S1(=O)OC(c2ccc(O)cc2)(c2ccc(O)cc2)c2ccccc21"
observable = "hepg2_glo_pod_0"
measured_result = -4.428

[[record]]
compound = "CC(C)=CCC/C(C)=C/CO"
observable = "hepg2_glo_pod_0"
measured_result = -4.417


Form field hepg2_glo_pod_0, entry Cc1cc(N)c2cc(NC(=O)Nc3ccc4nc(C)cc(N)c4c3)ccc2n1.Cl.Cl [Aminoquinuride dihydrochloride] : -4.417

Form field hepg2_glo_pod_0, entry O=C(O)c1ccccc1O.Oc1cccc2cccnc12 : -4.417

Form field hepg2_glo_pod_0, entry CN(C)c1ccc(C(=C2C=CC(=[N+](C)C)C=C2)c2ccccc2)cc1.CN(C)c1ccc(C(=C2C=CC(=[N+](C)C)C=C2)c2ccccc2)cc1.O=C(O)C(=O)O.O=C([O-])C(=O)O.O=C([O-])C(=O)O [Malachite green oxalate] : -4.417

The measurements presented in this section are drawn from paper PMC5439695.
